Recorded values, source patent US20240124387A1.

assay: Precipitation with CO2 in solutions containing different amino acids, ethanol and water (table 3); format: physicochemical; settings: 20 wt. % water, 80% wt. % ethanol, 0.5M NaOH; after CO2; includes sodium (bi)carbonate
Threshold check on Precipitate: strictly below 30 g/L is 1; on or above 30 g/L is 0.

molecule=CSCC[C@H](N)C(=O)O assigned_category=1
molecule=NCCCC[C@H](N)C(=O)O assigned_category=0
molecule=CC(C)C[C@H](N)C(=O)O assigned_category=1
molecule="N[C@@H](CCC(=O)[O-])C(=O)[O-].[Na+].[Na+] [Sodium glutamate]" assigned_category=0
molecule=N[C@@H](CCC(=O)O)C(=O)O assigned_category=0

Pending molecule:
In plain terms, does `N[C@@H](Cc1ccccc1)C(=O)O` come in under 30 g/L for Precipitate?
1
